The measured values listed here are drawn from paper PMC12040169.

Assay: in vitro
Conditions: human, hela cells, % viability
Assign labels as follows, please: 1 for viability at 28.5 h, 10 µM below 90%; 0 for viability at 28.5 h, 10 µM equal to or exceeding 90%.

compound	group
O=C(Cc1ccc(Cl)c(Cl)c1)NC(c1ccccc1)c1ccccn1 (stereo not drawn)	0
O=C1CC(C(=O)Nc2ccccc2)NC(Nc2cc(Cl)cc(Cl)c2)=N1 (stereo not drawn)	0
CC(C)n1c(=O)n(CC(=O)NC2CCCCC2)c2cccnc21	0
COc1ccc(-c2c[nH]c3c(=S)[nH]cnc23)cc1	1
N#Cc1ccc(-n2cc(-c3ccc(F)cc3F)nn2)cc1	0

In plain terms, does `CC(=O)c1c(C)oc2ccc(N(C(C)=O)S(=O)(=O)c3ccc(C(=O)O)cc3)cc12` come in under 90% for viability at 28.5 h, 10 µM?
0
